measurementProtocol: Observed plasma PK in clinical studies
Assay type: in vivo, human
appliedConditions: human, plasma, oral, observed Tmax, patients with AML
outcomeMeasure: Tmax

-- ask Which Tmax is reported for this compound? "CC(C)(C)c1cc(NC(=O)Nc2ccc(-c3cn4c(n3)sc3cc(OCCN5CCOCC5)ccc34)cc2)no1"
-- reply ~2 h
